meta.source: patent US20170022281A1

# measurementTarget: T1, human PRLR (Biacore antigen) (human, UniProt P16471 25-234, limits assumed)
# T1 construct: The construct injected over captured antibody is not described (a soluble form is likely); also called huPRLR
# T1 sequence: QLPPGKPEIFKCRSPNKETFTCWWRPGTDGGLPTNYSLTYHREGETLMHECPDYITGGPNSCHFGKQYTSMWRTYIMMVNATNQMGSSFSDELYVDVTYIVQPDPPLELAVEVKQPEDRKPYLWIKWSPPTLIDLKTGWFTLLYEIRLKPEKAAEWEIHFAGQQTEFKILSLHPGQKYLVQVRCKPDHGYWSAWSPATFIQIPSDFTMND
# assayInfo: SPR simultaneous binding; PRLR held by surface mAb Ab48

{"binder": "chAb8 (antibody, human IgG1, kappa, V domains shown, chimeric, murine variable and human G1/kappa constant regions) VH: EVQLQQSGPELVKPGASVKISCKASGYTFTDYNIHWVKQSHGKSLEWIGYIYPNNDGTGYNQKFKSKATLTVDNSSSTAYMEVRSLTSEDSAVYYCARGDGNYVGDMDYWGQGTSVTVSS VL: DIQMTQSPASLSASVGETVTITCRASENIYSYLAWYQQKQGKPPQLLVYNAKTLAEGVPSRFSGGGSGTQFSLKINSLQPEDFGSYYCQHHYATPFTFGSGTKLEIKT", "solution mAb binding, % of PRLR binding / %": -1}
{"binder": "chAb5 (antibody, human IgG1, kappa, V domains shown, chimeric, murine variable and human G1/kappa constant regions) VH: QVQLQQPGAELVRPGTSVKLSCKASGYTFTSFWMHWVKQRPGQGLEWIGVIDPSDTYTNYNQKFKGKATLTVDTSSSTAYMQLSSLTSEDSAVYYCARGDYSNWFTYWGQGTLVTVSA VL: DVVMTQTPLSLPVSLGDQASISCRSSQRLVHSNGNTYLHWYLQKPGQSPKLLIYKVSNRFSGVPDRFSGSGSGTDFTLKISRVEAEDLGVYFCSQSTHVPWTFGGGTKLEIKT", "solution mAb binding, % of PRLR binding / %": 8}
{"binder": "chAb6 (antibody, human IgG1, kappa, V domains shown, chimeric, murine variable and human G1/kappa constant regions) VH: QVQLQQPGAELVMPGSSVKLSCKASGYTFTTYWMHWVKQRPGQGLEWIGEIDPSDSYSNYNQKFKDKATLTVDKSSSTAYMQLSSLTSEDSAVYYCARNGGLGPAWFSYWGQGTLVTVSA VL: DIVMTQSQKFMSTTVGDRVSITCKASQYVGTAVAWYQQKPGQSPKLLIYSASNRYTGVPDRFTDSGSGTDFTLTISNLQSEDLADYFCQQYSSYPWTFGGGTKLEIKT", "solution mAb binding, % of PRLR binding / %": 0}
